Each item that follows carries a reported CC50.
system: Vero; experiment: Cytotoxicity against African green monkey Vero cells by CellTiter 96 non-radioactive cell proliferation colorimetric assay; assay type: cell-based; conditions: chlorocebus sabaeus, vero
MEASURED_PARAMETER: CC50 (µM)

compound=CC(C)(NS(=O)(=O)c1ccc(F)c(C(=O)Nc2ccc(F)c(F)c2)c1)c1ccccc1 result_qualifier== reported_value=39.4
compound=O=C(Nc1ccc(F)c(F)c1)c1cc(NS(=O)(=O)C2CC2)ccc1F result_qualifier== reported_value=30.7
compound=CN(C1CCCC1)S(=O)(=O)c1ccc(F)c(C(=O)Nc2ccc(F)c(F)c2)c1 result_qualifier== reported_value=18.3
compound=O=C1c2cc(S(=O)(=O)NC3CCCC3)ccc2CCN1c1ccc(F)c(F)c1 result_qualifier=> reported_value=100
compound=O=C(Nc1ccc(F)c(F)c1)c1cc(S(=O)(=O)NS(=O)(=O)c2ccc(F)c(F)c2)ccc1F result_qualifier=> reported_value=100
compound=O=C(Nc1ccc(F)c(F)c1)c1cc(S(=O)(=O)N2CC(F)(F)C2)ccc1F result_qualifier== reported_value=14.7
compound=O=C(Nc1ccc(F)c(F)c1)c1cc(S(=O)(=O)NC2CCCC2)ccc1F result_qualifier== reported_value=32.7
compound=O=C1c2cc(S(=O)(=O)NC3CCCC3)ccc2CCCN1c1ccc(F)c(F)c1 result_qualifier=> reported_value=100
compound="CC(NS(=O)(=O)c1ccc(F)c(C(=O)Nc2ccc(F)c(F)c2)c1)c1ccccc1 (stereo not given)" result_qualifier== reported_value=68
compound="O=C(Nc1ccc(F)c(F)c1)c1cc(S(=O)(=O)N2CCC3CCCCC32)ccc1F (stereo not given)" result_qualifier== reported_value=30.7
compound=O=C(Nc1ccc(F)c(F)c1)c1cc(S(=O)(=O)N2CC(F)(F)C(F)(F)C2)ccc1F result_qualifier== reported_value=9
compound=O=C(Nc1ccc(F)c(F)c1)c1cc(NS(=O)(=O)C2CCCC2)ccc1F result_qualifier== reported_value=29.1
compound=CS(=O)(=O)NS(=O)(=O)c1ccc(F)c(C(=O)Nc2ccc(F)c(F)c2)c1 result_qualifier=> reported_value=100
compound=CC(C)OC(=O)[C@H](C)NS(=O)(=O)c1ccc(F)c(C(=O)Nc2ccc(F)c(F)c2)c1 result_qualifier== reported_value=13.1
compound=O=C(Nc1ccc(F)c(F)c1)c1cc(S(=O)(=O)NC2CC2)ccc1F result_qualifier== reported_value=79.2
compound=CN(C1CCCC1)S(=O)(=O)c1ccc2c(c1)C(=O)N(c1ccc(F)c(F)c1)CC2 result_qualifier=> reported_value=100
compound=O=C(Nc1ccc(F)c(F)c1)c1cc(S(=O)(=O)NOC2CCCC2)ccc1F result_qualifier== reported_value=5.8
compound=O=C(Nc1ccc(F)c(F)c1)c1cc(NS(=O)(=O)C2CCCCC2)ccc1F result_qualifier== reported_value=6.4
compound=O=C(Nc1ccc(F)c(F)c1)c1cc(S(=O)(=O)N2CCCC2=O)ccc1F result_qualifier== reported_value=39.6
compound=CN(C)S(=O)(=O)NS(=O)(=O)c1ccc(F)c(C(=O)Nc2ccc(F)c(F)c2)c1 result_qualifier=> reported_value=100
